Each item that follows carries a reported activity coefficient.
experiment: activity coefficient (dimensionless); of the first substance listed, at infinite dilution; xn = mol fraction of the nth substance listed; conditions: 338.15 K; 101.3 kPa; Liquid; GC; x1 = 0
// return just the number, without any unit appended

Please fill in: activity coefficient reported for CCCO [propan-1-ol] + CCCCCCCCCCCCCCCCCCO = 0.0625

Please fill in: activity coefficient reported for ClCCl [dichloromethane] + CCCCCCCCCCCCCCCCCCO = 0.0233

Please fill in: activity coefficient reported for CCCCOC(C)=O [butyl ethanoate] + CCCCCCCCCCCCCCCCCCO = 0.0468

----------
experiment: activity coefficient (dimensionless); of the first substance listed, at infinite dilution; xn = mol fraction of the nth substance listed; conditions: 343.15 K; 101.3 kPa; Liquid; GC; x1 = 0
Lab note: anything with activity coefficient at or over 0.04 counts as t; the rest go in f.

Reference set, count: 2
Compound	Discrete label
CCOC(C)=O [ethyl acetate] + CCCCCCCCCCCCCCCCCCO	f
CCCCOC(C)=O [butyl ethanoate] + CCCCCCCCCCCCCCCCCCO	t

Q: Dear colleague, could you confirm whether C=CCCC [1-pentene] + CCCCCCCCCCCCCCCCCCO has activity coefficient at or above 0.04?
A: f

Numbers sourced from the NIST ThermoML archive (doi:10.1021/je1005517).
